tested on: HCT-8 (ileocecal adenocarcinoma); assay: Human tumor cell replication assay (sulforhodamine B), HCT-8; type: cell-based; settings: HCT8 cells, three days of continuous exposure, SRB assay

| MOLECULE | READOUT UNIT | Cell Line/ED50 HCT8 |
| --- | --- | --- |
| CC[C@@]1(O)C(=O)OCc2c1cc1n(c2=O)Cc2cc3ccccc3nc2-1 | log10 M | −9.3 |
| CC(=O)O[C@H]1C(=O)[C@@]2(C)[C@H]([C@H](OC(=O)c3ccccc3)[C@]3(O)C[C@H](OC(=O)[C@H](O)[C@@H](NC(=O)c4ccccc4)c4ccccc4)C(C)=C1C3(C)C)[C@]1(OC(C)=O)CO[C@@H]1C[C@@H]2O [Paclitaxel, reference compound] | log10 M | −7.1 |
| CCC1(O)C(=O)OCc2c1cc1n(c2=O)Cc2c-1nc1ccccc1c2C=NCCCCCC(=O)OC1CC2OCC2(OC(C)=O)C2C(OC(=O)c3ccccc3)C3(O)CC(OC(=O)C(O)C(NC(=O)c4ccccc4)c4ccccc4)C(C)=C(C(OC(C)=O)C(=O)C12C)C3(C)C (centres unmarked) | log10 M | −10.6 |
| CCC1(O)C(=O)OCc2c1cc1n(c2=O)Cc2c-1nc1ccccc1c2C=NCCCC(=O)OC1CC2OCC2(OC(C)=O)C2C(OC(=O)c3ccccc3)C3(O)CC(OC(=O)C(O)C(NC(=O)c4ccccc4)c4ccccc4)C(C)=C(C(OC(C)=O)C(=O)C12C)C3(C)C (centres unmarked) | log10 M | −10.0 |
| CCC1(O)C(=O)OCc2c1cc1n(c2=O)Cc2c-1nc1ccccc1c2C=NCCC(=O)OC1CC2OCC2(OC(C)=O)C2C(OC(=O)c3ccccc3)C3(O)CC(OC(=O)C(O)C(NC(=O)c4ccccc4)c4ccccc4)C(C)=C(C(OC(C)=O)C(=O)C12C)C3(C)C (centres unmarked) | log10 M | −10.6 |
